Ref: PubChem BioAssay AID330

Listing of entries alongside the reported T/C.
Test system: P388 leukemia ip, CD2F1 mice, survival T/C
Assay: NCI In Vivo Anticancer Drug Screen. Data for tumor model P388 Leukemia (intraperitoneal) in CD2F1 (CDF1) mice
Conditions: endpoint: median survival time; dose: 240.0 mg/kg/injection; schedule: Q01DX005 (ip); vehicle: Klucel + Tween-80; higher = longer survival
Description: The antitumor activity of compounds was measured in mice bearing transplantable tumors. Survival or tumor size were measured and the results are expressed as the measurement made in the treated group (T) divided by the measurement made in the vehicle treated control group (C). The tumor model used in this assay is P388 Leukemia (intraperitoneal) in CD2F1 (CDF1) mice
Inconclusive results and toxic doses are left out.
Observed property: T/C

In [3]: df
Out[3]:
                                   compound  recorded_measurement
0  NC(=O)NC(c1ccc(O)cc1)c1cc2c(cc1O)OCO2 (centres undefined)       86 % of control
1  COc1ccc2c(c1)CCc1c(-c3noc4c3CCc3cc(OC)ccc3-4)noc1-2      100 % of control
2  c1ccc2c(c1)Cc1c(-c3noc4c3Cc3ccccc3-4)noc1-2       91 % of control
3  O=c1[nH]c2cc([N+](=O)[O-])ccc2nc1/C=C(\O)c1ccccc1       92 % of control
